binders and their reported kon
- MEASURED_TARGET: T1, histidine-tagged human Siglec-7 (NovoProtein) (human, UniProt Q9Y286 19-353)
- T1 construct: Bought protein; also called recombinant human Siglec-7; recombinant Siglec-7; not shown: histidine tag
- T1 sequence (Q9Y286 19-353 limits assumed): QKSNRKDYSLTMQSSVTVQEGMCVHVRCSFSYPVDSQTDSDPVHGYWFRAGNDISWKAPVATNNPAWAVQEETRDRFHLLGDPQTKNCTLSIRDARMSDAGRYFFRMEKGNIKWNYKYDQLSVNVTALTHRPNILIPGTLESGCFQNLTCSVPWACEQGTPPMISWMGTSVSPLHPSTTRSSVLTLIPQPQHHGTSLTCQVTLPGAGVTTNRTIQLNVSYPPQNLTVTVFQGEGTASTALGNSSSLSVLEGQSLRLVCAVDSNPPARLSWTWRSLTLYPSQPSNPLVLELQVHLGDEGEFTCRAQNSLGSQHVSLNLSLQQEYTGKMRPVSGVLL
- ASSAY_TEXT: BLI, antibody captured
Report only the number, with the unit M⁻¹ s⁻¹ understood.

Enquiry: Answer with the recorded kon for the binder listed here: S7AB-H8.40 (antibody, V domains shown) VH: QVQLVQSGAEVKKPGASVKVSCKASGYAFTEAWMNWVRQAPGQGLEWIGRIFPGYGHTNYAQKFQGRATLTEDTSTSTAYMELSSLRSEDTAVYYCARDYSDYYFDYWGQGTLVTVSS VL: DIQMTQSPSSLSASVGDRVTITCRGSQDINTYLNWYQQKPGKAPKLLIYYTSRLHSGVPSRFSGSGSGTDYTLTISSLQPEDFATYYCQQGNVLPWTFGQGTKLEIK
Return: 148000

Enquiry: Answer with the recorded kon for the binder listed here: S7AB-H8.18 (antibody, V domains shown) VH: QVQLVQSGAEVKKPGASVKVSCKASGYAFTGYWMNWVRQAPGQGLEWIGRIFPGLGHTNYAQKFQGRATLTEDTSTSTAYMELSSLRSEDTAVYYCARDYSDYYFDYWGQGTLVTVSS VL: DIQMTQSPSSLSASVGDRVTITCRGSQDTNTYLNWYQQKPGKAPKLLIYYTSRLHSGVPSRFSGSGSGTDYTLTISSLQPEDFATYYCQQGNTLPWTFGQGTKLEIK
Return: 199000

Enquiry: Answer with the recorded kon for the binder listed here: S7AB-H8.35 (antibody, V domains shown) VH: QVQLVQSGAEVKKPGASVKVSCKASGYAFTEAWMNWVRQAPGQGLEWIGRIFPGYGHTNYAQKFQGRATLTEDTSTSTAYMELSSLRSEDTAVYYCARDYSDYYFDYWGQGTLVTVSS VL: DIQMTQSPSSLSASVGDRVTITCRGSQDINTYLNWYQQKPGKAPKLLIYYTSRLHSGVPSRFSGSGSGTDYTLTISSLQPEDFATYYCQQGGTLPWTFGQGTKLEIK
Return: 108000

Enquiry: Answer with the recorded kon for the binder listed here: S7AB-H8.44 (antibody, V domains shown) VH: QVQLVQSGAEVKKPGASVKVSCKASGYAFTAAWMNWVRQAPGQGLEWIGRIFPGLGHTNYAQKFQGRATLTEDTSTSTAYMELSSLRSEDTAVYYCARDYSDYYFDYWGQGTLVTVSS VL: DIQMTQSPSSLSASVGDRVTITCRGSQDINTYLNWYQQKPGKAPKLLIYYTSRLHSGVPSRFSGSGSGTDYTLTISSLQPEDFATYYCQQGNILPWTFGQGTKLEIK
Return: 188000

Enquiry: Answer with the recorded kon for the binder listed here: S7AB-H8.1 (antibody, V domains shown) VH: QVQLVQSGAEVKKPGASVKVSCKASGYAFTETWMNWVRQAPGQGLEWIGRIFPGLGHTNYAQKFQGRATLTEDTSTSTAYMELSSLRSEDTAVYYCARDYSDYYFDYWGQGTLVTVSS VL: DIQMTQSPSSLSASVGDRVTITCRGSQDINTYLNWYQQKPGKAPKLLIYYTSRLHSGVPSRFSGSGSGTDYTLTISSLQPEDFATYYCQQGNLLPWTFGQGTKLEIK
Return: 123000

Enquiry: Answer with the recorded kon for the binder listed here: S7AB-H8.20 (antibody, V domains shown) VH: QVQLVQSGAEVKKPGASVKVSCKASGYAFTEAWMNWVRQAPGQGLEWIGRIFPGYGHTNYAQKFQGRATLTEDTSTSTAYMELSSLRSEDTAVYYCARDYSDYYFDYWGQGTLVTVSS VL: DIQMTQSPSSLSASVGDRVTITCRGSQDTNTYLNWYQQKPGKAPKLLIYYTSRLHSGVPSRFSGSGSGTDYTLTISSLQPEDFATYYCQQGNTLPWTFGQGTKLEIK
Return: 79900

Enquiry: Answer with the recorded kon for the binder listed here: S7AB-H8.31 (antibody, V domains shown) VH: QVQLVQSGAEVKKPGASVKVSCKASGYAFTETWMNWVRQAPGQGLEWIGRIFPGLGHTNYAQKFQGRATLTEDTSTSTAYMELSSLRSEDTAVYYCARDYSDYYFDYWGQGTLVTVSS VL: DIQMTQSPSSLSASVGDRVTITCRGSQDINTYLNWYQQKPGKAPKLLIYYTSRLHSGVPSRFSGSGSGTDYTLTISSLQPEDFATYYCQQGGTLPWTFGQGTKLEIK
Return: 145000

Enquiry: Answer with the recorded kon for the binder listed here: S7AB-H8.25 (antibody, V domains shown) VH: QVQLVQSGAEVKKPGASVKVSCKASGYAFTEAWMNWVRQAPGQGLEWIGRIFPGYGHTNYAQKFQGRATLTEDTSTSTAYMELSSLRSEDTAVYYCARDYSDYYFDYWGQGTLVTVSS VL: DIQMTQSPSSLSASVGDRVTITCRASEDINTYLNWYQQKPGKAPKLLIYYTSRLHSGVPSRFSGSGSGTDYTLTISSLQPEDFATYYCQQGGTLPWTFGQGTKLEIK
Return: 104000

Enquiry: Answer with the recorded kon for the binder listed here: S7AB-H8.8 (antibody, V domains shown) VH: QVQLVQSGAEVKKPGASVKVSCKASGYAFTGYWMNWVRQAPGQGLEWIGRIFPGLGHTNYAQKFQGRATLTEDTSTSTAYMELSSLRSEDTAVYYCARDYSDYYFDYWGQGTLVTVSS VL: DIQMTQSPSSLSASVGDRVTITCRGSQDINTYLNWYQQKPGKAPKLLIYYTSRLHSGVPSRFSGSGSGTDYTLTISSLQPEDFATYYCQQGNTKPWTFGQGTKLEIK
Return: 171000

Enquiry: Answer with the recorded kon for the binder listed here: S7AB-H8.41 (antibody, V domains shown) VH: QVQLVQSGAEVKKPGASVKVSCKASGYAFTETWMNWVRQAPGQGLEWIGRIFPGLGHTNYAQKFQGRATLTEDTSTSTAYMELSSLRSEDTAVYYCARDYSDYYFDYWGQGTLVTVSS VL: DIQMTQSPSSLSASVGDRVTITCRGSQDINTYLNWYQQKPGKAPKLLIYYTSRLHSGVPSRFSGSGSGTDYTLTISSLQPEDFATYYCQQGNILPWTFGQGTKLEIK
Return: 172000
